Assignment: determine reported pKd for the given sequences.
targetOrSystem: HLA-A*01:01
assayInfo: IEDB peptide-MHC binding, purified MHC/competitive/fluorescence; filed as Kd, often an IC50 or EC50 that approximates it; bounds were set here for any values at or beyond the usual limits of such assays
measurementSetup: source organism: Yersinia pestis Nepal516
Please keep in mind that pKd is minus log10 of the molar concentration; only the number is needed.

Prompt: Identify measured pKd corresponding to `FVMSCKLLY`
Response: 6.16

Prompt: Give the reported value of pKd for this record: `STIVWSSRY`
Response: 5.85

###

targetOrSystem: HLA-B*40:01
assayInfo: IEDB peptide-MHC binding, purified MHC/direct/fluorescence; filed as Kd, often an IC50 or EC50 that approximates it; bounds were set here for any values at or beyond the usual limits of such assays
measurementSetup: source organism: Serratia marcescens
attributeMeasured: Kd

Prompt: Please indicate Kd recorded for `LIPDGDGEV`
Response: ≥ 20 µM
